# Test system: S. cerevisiae AD1-9 (efflux-pump deficient), vegetative growth in YPD
# assayProtocol: growth sensitivity score (doubling time z-score vs DMSO controls); higher = slower growth, strongly negative scores also mark growth inhibition (complete suppression), active = hit call of the paper
Counter-ions that a name gives are not always drawn.
measuredQuantity: growth sensitivity score
No unit in the answer, please; the number alone is enough.

Query string: Would you mind telling me what growth sensitivity score value was observed for COc1ccc2c(c1)c(CC(=O)O)c(C)n2C(=O)c1ccc(Cl)cc1 [Indomethacin] (stock concentration (mM, diluted 1:100): 10.5) ?
Result string: 0.93

Query string: What about O=C(O[C@@H]1C[C@@H]2C[C@H]3C[C@H](C1)N2CC3=O)c1c[nH]c2ccccc12 [Dolasetron mesylate] (stock concentration (mM, diluted 1:100): 10.4) ?
Result string: -0.71

Query string: Let us now turn to Nc1ccn([C@@H]2CS[C@H](CO)O2)c(=O)n1 [Lamivudine] (stock concentration (mM, diluted 1:100): 9.9)
Result string: -1.68

Query string: Another compound to check: CCn1cc(C(=O)O)c(=O)c2cc(F)c(N3CCN(C)CC3)cc21 [Pefloxacin mesylate] (stock concentration (mM, diluted 1:100): 7.9)
Result string: 3.65

Query string: Now this one: CC(N/C(=N\C#N)Nc1ccncc1)C(C)(C)C (stereo unspecified) [Pinacidil monohydrate] (stock concentration (mM, diluted 1:100): 10)
Result string: -0.96

Query string: Thanks! And CN1[C@@H]2CC[C@H]1C[C@@H](OC(=O)c1c[nH]c3ccccc13)C2 [Tropisetron hydrochloride] (stock concentration (mM, diluted 1:100): 7.7) ?
Result string: -2.07

----------
# Test system: S. cerevisiae SK1 pCDA2-eGFP (USY613), sporulating;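 note: active if sensitivity score above 5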
# assayProtocol: CDA2-GFP sporulation assay sensitivity score (z-score vs DMSO controls); higher = stronger inhibition of sporulation, active = hit call of the paper
Counter-ions that a name gives are not always drawn.
measuredQuantity: CDA2-GFP sporulation assay sensitivity score
Returns: the value as a bare number; no unit string appended.

Query string: Reported CDA2-GFP sporulation assay sensitivity score, compound CCCc1nc(C)c2c(=O)nc(-c3cc(S(=O)(=O)N4CCN(CC)CC4)ccc3OCC)[nH]n12 [Vardenafil citrate] (stock concentration (mM, diluted 1:100): 7.2) : ____
Result string: 4.72

Query string: Another compound to look at: CCc1oc2ccccc2c1C(=O)c1cc(Br)c(O)c(Br)c1 [Benzbromarone] (stock concentration (mM, diluted 1:100): 10)
Result string: 13.7

Query string: Okay, and COc1cc(C)nc(-n2nc(C)cc2OC)n1 [Mepirizole] (stock concentration (mM, diluted 1:100): 10) ?
Result string: -1.87

----------
What growth sensitivity score was measured for each of the following?
# Tested on: S. cerevisiae BY4741 (wild-type), vegetative growth in YPD
# assayProtocol: growth sensitivity score (doubling time z-score vs DMSO controls); higher = slower growth, strongly negative scores also mark growth inhibition (complete suppression), active = hit call of the paper
Where a name gives a salt, the structure may show the parent alone.
Lab note: write the figure by itself, no unit.

Query string: What measured growth sensitivity score goes with CC(COc1ccccc1Cc1ccccc1)N1CCCCC1 (stereo unspecified) [Benproperine phosphate] (stock concentration (mM, diluted 1:100): 10) ?
Result string: 6.41

Query string: Again, but for O=C1N(c2ccccc2)c2ccccc2C1(Cc1ccncc1)Cc1ccncc1 (stock concentration (mM, diluted 1:100): 10)
Result string: 1.8

Query string: Also Nc1nnc(-c2cccc(Cl)c2Cl)c(N)n1 [Lamotrigine] (stock concentration (mM, diluted 1:100): 10.3) , if possible.
Result string: -1.57

Query string: Would you kindly repeat that for CC(=O)Nc1ccc(CC(=O)O)cc1 [Actarit] (stock concentration (mM, diluted 1:100): 10) ?
Result string: -2

Query string: Subsequent entry: Cc1c(O)cccc1C(=O)N[C@@H](CSc1ccccc1)[C@H](O)CN1C[C@H]2CCCC[C@H]2C[C@H]1C(=O)NC(C)(C)C [Nelfinavir mesylate] (stock concentration (mM, diluted 1:100): 8.6)
Result string: 0.56

Query string: Here is the next molecule: CC(C)[C@H]1CC[C@H](C(=O)N[C@H](Cc2ccccc2)C(=O)O)CC1 [Nateglinide] (stock concentration (mM, diluted 1:100): 10)
Result string: -0.35

----------
# System: S. cerevisiae NKY1551 his4x/his4B, sporulating;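 note: active if sensitivity score above 5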
# assayProtocol: HIS4 meiotic recombination assay sensitivity score (z-score vs DMSO controls); higher = stronger inhibition of sporulation/recombination, active = hit call of the paper
Structures can show the parent of a compound that is named as a salt.
Cut-off -0.8 on HIS4 meiotic recombination assay sensitivity score, inclusive. At or above means met; below means not met.

Query string: Given CC(=O)CCCCn1cnc2c1c(=O)n(C)c(=O)n2C [Lomifylline] (stock concentration (mM, diluted 1:100): 10) , state whether its HIS4 meiotic recombination assay sensitivity score is at least -0.8.
Result string: not met

Query string: Subsequent entry: CC(C(O)c1ccc(O)cc1)N1CCC(Cc2ccccc2)CC1 (stereo unspecified) [Ifenprodil] (stock concentration (mM, diluted 1:100): 9.2)
Result string: met

Query string: And Nc1nc(N)nc(-c2cc(Cl)ccc2Cl)n1 [Irsogladine maleate] (stock concentration (mM, diluted 1:100): 6.9) ?
Result string: met

Query string: Then what about the compound C[C@]12CC[C@@H]3c4ccc(OS(=O)(=O)O)cc4CC[C@H]3[C@@H]1CCC2=O (stock concentration (mM, diluted 1:100): 10) ?
Result string: met

Query string: How about COc1ccc(CC(C)NCC(O)c2ccc(O)c(NC=O)c2)cc1 (stereo unspecified) [Formoterol fumarate dihydrate] (stock concentration (mM, diluted 1:100): 7) ?
Result string: not met

----------
# System: S. cerevisiae BY4741 (wild-type), vegetative growth in YPD
# assayProtocol: growth sensitivity score (doubling time z-score vs DMSO controls); higher = slower growth, strongly negative scores also mark growth inhibition (complete suppression), active = hit call of the paper
Where a name gives a salt, the structure may show the parent alone.
Class Yes: growth sensitivity score at least 1. Class No: growth sensitivity score below 1.

Query string: Test whether the compound CN(C/C=C/C#CC(C)(C)C)Cc1cccc2ccccc12 [Terbinafine hydrochloride] (stock concentration (mM, diluted 1:100): 8.9) records growth sensitivity score of 1 or higher.
Result string: Yes

Query string: Then what about the compound NC(N)=NC(=O)c1nc(Cl)c(N)nc1N (stock concentration (mM, diluted 1:100): 8.2) ?
Result string: Yes

Query string: Same read-out for N[C@@H]1CONC1=O [D-Cycloserine] (stock concentration (mM, diluted 1:100): 10) ?
Result string: Yes

Query string: Next: CS(=O)(=O)c1ccc(-c2cc(Br)sc2-c2ccc(F)cc2)cc1 (stock concentration (mM, diluted 1:100): 10)
Result string: No

Query string: Also, CC(C)OC(=O)CCC/C=C\C[C@@H]1[C@@H](CC[C@@H](O)CCc2ccccc2)[C@H](O)C[C@@H]1O [Latanoprost] (stock concentration (mM, diluted 1:100): 10.3) please.
Result string: No

Query string: Next record, please: Cc1ccc(NC(=O)c2ccc(CN3CCN(C)CC3)cc2)cc1Nc1nccc(-c2cccnc2)n1 [Imatinib mesylate] (stock concentration (mM, diluted 1:100): 8.4)
Result string: No

Query string: And then CNCC[C@H](Oc1cccc2ccccc12)c1cccs1 [Duloxetine] (stock concentration (mM, diluted 1:100): 10) , what is it?
Result string: Yes

Query string: Also, CCOc1cc(CC(=O)N[C@@H](CC(C)C)c2ccccc2N2CCCCC2)ccc1C(=O)O [Repaglinide] (stock concentration (mM, diluted 1:100): 10) please.
Result string: Yes

Query string: Thanks! And Nc1ccn([C@@H]2CS[C@H](CO)O2)c(=O)n1 [Lamivudine] (stock concentration (mM, diluted 1:100): 9.9) ?
Result string: No

Query string: Next entry: CCS(=O)(=O)CCn1c([N+](=O)[O-])cnc1C [Tinidazole] (stock concentration (mM, diluted 1:100): 10)
Result string: No

Query string: Next compound: COc1cc(OC)c(C(=O)CCCN2CCCC2)c(OC)c1 [Buflomedil hydrochloride] (stock concentration (mM, diluted 1:100): 8.9)
Result string: Yes

Query string: Same again, this time with CCOC(=O)C1=C(C)NC(C)=C(C(=O)OC)C1c1cccc([N+](=O)[O-])c1 (configuration not stated) [Nitrendipine] (stock concentration (mM, diluted 1:100): 10)
Result string: Yes

----------
# System: S. cerevisiae AD1-9 (efflux-pump deficient), vegetative growth in YPD
# assayProtocol: growth sensitivity score (doubling time z-score vs DMSO controls); higher = slower growth, strongly negative scores also mark growth inhibition (complete suppression), active = hit call of the paper
Structures can show the parent of a compound that is named as a salt.
Parameter threshold = 4. Response is Yes when growth sensitivity score meets or exceeds it, else No.

Query string: Please indicate if the recorded growth sensitivity score for C[C@@H]1O[C@@H](OC[C@H]2O[C@@H](Oc3c(-c4ccc(O)c(O)c4)oc4cc(O)cc(O)c4c3=O)[C@H](O)[C@@H](O)[C@@H]2O)[C@H](O)[C@H](O)[C@H]1O [Rutin] (stock concentration (mM, diluted 1:100): 10) meets or exceeds 4.
Result string: No

Query string: Now give it for CC(=O)Nc1ccc(CC(=O)O)cc1 [Actarit] (stock concentration (mM, diluted 1:100): 10) too.
Result string: No

Query string: Another compound to check: CC12CC3CC(C)(C1)CC(N)(C3)C2 [Memantine hydrochloride] (stock concentration (mM, diluted 1:100): 8.3)
Result string: No

Query string: Thanks! And COc1cc(CNC(=O)CCCC/C=C/C(C)C)ccc1O [Capsaicin] (stock concentration (mM, diluted 1:100): 10) ?
Result string: Yes

Query string: What about COc1ccc(/C=C/C(=O)Nc2ccccc2C(=O)O)cc1OC [Tranilast] (stock concentration (mM, diluted 1:100): 10) ?
Result string: No

Query string: Also check CC1=C(C(=O)O)N2C(=O)[C@@H](NC(=O)[C@H](N)c3ccccc3)[C@H]2SC1 [Cephalexin monohydrate] (stock concentration (mM, diluted 1:100): 10)
Result string: No

Query string: Try this compound next: CCCN[C@H]1CCc2nc(N)sc2C1 [Pramipexole hydrochloride] (stock concentration (mM, diluted 1:100): 7.1)
Result string: No

Query string: Would you kindly repeat that for Cc1cccc(C)c1NC(=O)C(C)N (stereo not drawn) [Tocainide] (stock concentration (mM, diluted 1:100): 10) ?
Result string: No

Query string: Same lookup for O=C(O)Cc1ccccc1Nc1c(Cl)cccc1Cl [Diclofenac] (stock concentration (mM, diluted 1:100): 10) , please.
Result string: Yes

Query string: And O=c1c(-c2ccccc2)c1-c1ccccc1 [Diphenylcyclopropenone] (stock concentration (mM, diluted 1:100): 10) ?
Result string: Yes

Query string: Also CNCC[C@H](Oc1cccc2ccccc12)c1cccs1 [Duloxetine hydrochloride] (stock concentration (mM, diluted 1:100): 8.9) , if possible.
Result string: Yes

Query string: Now the compound CN1CCC(=C2c3ccccc3CC(=O)c3sccc32)CC1 [Ketotifen fumarate] (stock concentration (mM, diluted 1:100): 8.9)
Result string: No

Query string: Same question, CCOC(=O)c1ccc(OC(=O)CCCCCNC(=N)N)cc1 [Gabexate mesylate] (stock concentration (mM, diluted 1:100): 7.7) this time
Result string: Yes

Query string: Next record, please: COc1ccc(-c2cc(=O)c3c(OC)c(OC)c(OC)c(OC)c3o2)cc1OC [Nobiletin] (stock concentration (mM, diluted 1:100): 10)
Result string: No

Query string: Can you check CN(C)CC[C@@H](c1ccc(Br)cc1)c1ccccn1 [Dexbrompheniramine maleate] (stock concentration (mM, diluted 1:100): 7.3) next?
Result string: No

Query string: Moving on to the next compound: COCCOC(=O)C1=C(C)NC(C)=C(C(=O)OC(C)C)C1c1cccc([N+](=O)[O-])c1 (stereo not drawn) [Nimodipine] (stock concentration (mM, diluted 1:100): 10)
Result string: Yes

Query string: Entry CC[C@H]1OC(=O)[C@H](C)C(=O)[C@H](C)[C@@H](O[C@@H]2O[C@H](C)C[C@H](N(C)C)[C@H]2O)[C@](C)(OC)C[C@@H](C)C(=O)[C@H](C)[C@H]2N(CCCCn3cnc(-c4cccnc4)c3)C(=O)O[C@]12C [Telithromycin] (stock concentration (mM, diluted 1:100): 10) please
Result string: Yes

Query string: Follow-up item: CC(C)(C)NCC(O)c1ccc(O)c(CO)c1 (stereo not drawn) [Salbutamol sulfate] (stock concentration (mM, diluted 1:100): 9.7)
Result string: No

Query string: Quick one: Nc1ccn([C@H]2CC[C@@H](CO)O2)c(=O)n1 [Zalcitabine] (stock concentration (mM, diluted 1:100): 10)
Result string: No

Query string: Now consider NC1CCN(c2cccc(Cl)n2)CC1 (stock concentration (mM, diluted 1:100): 10) .
Result string: No

Query string: Proceed to CCCN[C@H]1CCc2nc(N)sc2C1 [Pramipexole] (stock concentration (mM, diluted 1:100): 10)
Result string: Yes

Query string: What about this compound? CC1(C)O[C@@H]2[C@@H](CO[C@@]3(COS(N)(=O)=O)OC(C)(C)O[C@@H]23)O1 [Topiramate] (stock concentration (mM, diluted 1:100): 10)
Result string: No

Query string: Request: CN(C)CCCSc1ccccc1NC(=O)/C=C/c1ccccc1 [Cinanserin] (stock concentration (mM, diluted 1:100): 10)
Result string: Yes
